Assay: Cytotoxicity against mouse L5178Y cells (TK +/-) assessed as reduction in cell viability incubated for 72 hrs by Cell Titer-Glo assay
Details: L5178Y cells (TK +/-)
In this section we review reported CC50 at 72 h values for a set of compounds.
reported-property: CC50 at 72 h (µg/mL)

[
  {
    "compound": "NCC(Oc1noc2ccc(-c3ccccc3Cl)cc12)c1ccccn1 (configuration not stated)",
    "reported-property": "CC50 at 72 h",
    "value": 3
  },
  {
    "compound": "NC[C@H](Nc1nccc2ccc(-c3ccccc3Cl)cc12)c1ccccc1",
    "reported-property": "CC50 at 72 h",
    "value": 3
  },
  {
    "compound": "NC[C@H](Oc1n[nH]c2ccc(-c3ccccc3Cl)cc12)c1ccccc1",
    "reported-property": "CC50 at 72 h",
    "value": 3
  },
  {
    "compound": "Cn1nc(NC(CN)c2ccccc2)c2cc(-c3ccccc3Cl)ccc21 (configuration not stated)",
    "reported-property": "CC50 at 72 h",
    "value": 5
  },
  {
    "compound": "NC[C@@H](c1ccccc1)n1cnc2c(-c3ccccc3Cl)csc2c1=O",
    "reported-property": "CC50 at 72 h",
    "value": 16
  },
  {
    "compound": "NCC(Nc1n[nH]c2ccc(-c3ccccc3Cl)cc12)c1ccccc1 (configuration not stated)",
    "reported-property": "CC50 at 72 h",
    "value": 5
  },
  {
    "compound": "NC[C@H](Oc1noc2ncc(-c3ccccc3Cl)cc12)c1ccccc1",
    "reported-property": "CC50 at 72 h",
    "value": 20
  }
]

----------
The entries below come with measured MIC values attached.
Tested on: Escherichia coli
Test: Antibacterial activity against tolC deficient Escherichia coli Top10 harboring GyrB E793K mutant
Type: functional

[
  {
    "compound": "NCC(Nc1n[nH]c2ccc(-c3ccccc3Cl)cc12)c1ccccc1 (configuration not stated)",
    "MIC / µg/mL": 4
  },
  {
    "compound": "NC[C@@H](c1ccccc1)n1cnc2c(-c3ccccc3Cl)csc2c1=O",
    "MIC / µg/mL": 16
  },
  {
    "compound": "NC[C@H](Oc1noc2ncc(-c3ccccc3Cl)cc12)c1ccccc1",
    "MIC / µg/mL": 16
  },
  {
    "compound": "N=C(N)NC[C@H](Oc1noc2ccc(-c3ccccc3Cl)cc12)c1ccccc1",
    "MIC / µg/mL": 0.5
  },
  {
    "compound": "NCC(Oc1noc2ccc(-c3ccccc3Cl)cc12)c1ccccn1 (configuration not stated)",
    "MIC / µg/mL": 8
  },
  {
    "compound": "Cn1nc(O[C@@H](CN)c2ccccc2)c2cc(-c3ccccc3Cl)ccc21",
    "MIC / µg/mL": 2
  },
  {
    "compound": "Cc1sc(-c2ccccc2Cl)cc1C(=O)N[C@@H](CN)c1ccccc1",
    "MIC / µg/mL": 4
  },
  {
    "compound": "NC[C@H](Nc1nccc2ccc(-c3ccccc3Cl)cc12)c1ccccc1",
    "MIC / µg/mL": 2
  },
  {
    "compound": "NC[C@H](Oc1noc2ccc(-c3ccccc3Cl)cc12)c1ccccc1",
    "MIC / µg/mL": 2
  },
  {
    "compound": "NC[C@H](Oc1n[nH]c2ccc(-c3ccccc3Cl)cc12)c1ccccc1",
    "MIC / µg/mL": 2
  },
  {
    "compound": "NC[C@H](Oc1noc2ccc(-c3ccccc3Cl)nc12)c1ccccc1",
    "MIC / µg/mL": 16
  },
  {
    "compound": "Cn1nc(NC(CN)c2ccccc2)c2cc(-c3ccccc3Cl)ccc21 (configuration not stated)",
    "MIC / µg/mL": 4
  }
]

----------
Target: Sodium channel protein type 5 subunit alpha (Homo sapiens, UniProt Q14524)
Sequence (Q14524 whole entry): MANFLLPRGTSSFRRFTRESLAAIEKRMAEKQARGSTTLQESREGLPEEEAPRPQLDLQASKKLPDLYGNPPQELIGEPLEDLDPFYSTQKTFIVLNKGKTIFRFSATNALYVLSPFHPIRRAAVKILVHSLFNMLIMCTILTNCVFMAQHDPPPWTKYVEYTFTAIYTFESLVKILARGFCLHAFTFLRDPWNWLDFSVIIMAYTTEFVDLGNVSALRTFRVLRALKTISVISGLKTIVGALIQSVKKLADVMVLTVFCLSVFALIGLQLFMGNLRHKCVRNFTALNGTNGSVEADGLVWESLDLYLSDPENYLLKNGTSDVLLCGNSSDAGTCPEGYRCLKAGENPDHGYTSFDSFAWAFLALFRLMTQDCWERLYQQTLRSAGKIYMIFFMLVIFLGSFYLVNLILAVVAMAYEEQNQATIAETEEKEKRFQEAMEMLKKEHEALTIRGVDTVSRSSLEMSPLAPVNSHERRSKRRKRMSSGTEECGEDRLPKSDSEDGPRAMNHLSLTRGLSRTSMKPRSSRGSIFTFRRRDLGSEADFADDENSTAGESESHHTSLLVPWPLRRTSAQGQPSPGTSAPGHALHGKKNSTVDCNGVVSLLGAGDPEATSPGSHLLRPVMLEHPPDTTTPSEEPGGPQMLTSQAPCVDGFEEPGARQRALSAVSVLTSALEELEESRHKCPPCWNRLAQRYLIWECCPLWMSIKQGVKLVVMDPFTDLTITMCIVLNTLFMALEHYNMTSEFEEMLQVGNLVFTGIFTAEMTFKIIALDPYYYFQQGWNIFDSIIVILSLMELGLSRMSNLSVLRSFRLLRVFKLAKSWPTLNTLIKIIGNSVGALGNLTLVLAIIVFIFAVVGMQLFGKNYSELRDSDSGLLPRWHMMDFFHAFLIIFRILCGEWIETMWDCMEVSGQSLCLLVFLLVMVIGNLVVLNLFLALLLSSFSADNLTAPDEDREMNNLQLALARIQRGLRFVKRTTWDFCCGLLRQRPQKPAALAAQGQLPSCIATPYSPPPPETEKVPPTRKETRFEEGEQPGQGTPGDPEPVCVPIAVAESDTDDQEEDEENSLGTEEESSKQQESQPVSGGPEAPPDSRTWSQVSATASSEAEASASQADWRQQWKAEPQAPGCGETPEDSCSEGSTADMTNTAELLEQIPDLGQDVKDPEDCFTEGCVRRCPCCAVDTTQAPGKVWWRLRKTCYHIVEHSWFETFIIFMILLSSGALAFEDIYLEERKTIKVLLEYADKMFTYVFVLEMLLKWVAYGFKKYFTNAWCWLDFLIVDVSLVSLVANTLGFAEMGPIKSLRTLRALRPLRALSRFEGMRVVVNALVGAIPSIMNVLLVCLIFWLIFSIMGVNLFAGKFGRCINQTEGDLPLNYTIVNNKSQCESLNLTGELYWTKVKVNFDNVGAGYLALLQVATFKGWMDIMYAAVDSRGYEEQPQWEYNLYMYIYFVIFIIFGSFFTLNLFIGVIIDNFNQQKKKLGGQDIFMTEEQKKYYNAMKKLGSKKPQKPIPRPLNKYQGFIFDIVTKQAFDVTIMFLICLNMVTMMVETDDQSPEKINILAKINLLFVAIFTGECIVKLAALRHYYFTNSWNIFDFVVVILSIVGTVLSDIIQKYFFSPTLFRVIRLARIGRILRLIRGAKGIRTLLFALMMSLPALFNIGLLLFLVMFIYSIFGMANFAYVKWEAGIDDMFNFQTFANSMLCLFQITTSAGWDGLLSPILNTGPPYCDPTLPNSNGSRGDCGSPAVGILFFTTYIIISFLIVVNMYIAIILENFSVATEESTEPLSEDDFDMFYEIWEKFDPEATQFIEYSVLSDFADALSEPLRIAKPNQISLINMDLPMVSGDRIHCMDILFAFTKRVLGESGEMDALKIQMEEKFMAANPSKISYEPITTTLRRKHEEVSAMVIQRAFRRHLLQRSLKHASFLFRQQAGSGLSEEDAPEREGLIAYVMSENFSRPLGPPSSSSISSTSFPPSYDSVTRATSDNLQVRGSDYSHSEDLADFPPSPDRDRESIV
Test: Inhibition of human NaV1.5 expressed in HEK293 cells assessed as decrease in sodium current amplitude at -120 mV holding potential by Qpatch assay

[
  {
    "smiles-code": "NC[C@H](Oc1noc2ccc(-c3ccccc3Cl)cc12)c1ccccc1",
    "IC50 / µM": 22
  },
  {
    "smiles-code": "NC[C@H](Oc1noc2ncc(-c3ccccc3Cl)cc12)c1ccccc1",
    "IC50 / µM": 24
  },
  {
    "smiles-code": "NC[C@H](Oc1noc2ccc(-c3ccccc3Cl)nc12)c1ccccc1",
    "IC50 / µM": 16
  },
  {
    "smiles-code": "Cc1sc(-c2ccccc2Cl)cc1C(=O)N[C@@H](CN)c1ccccc1",
    "IC50 / µM": 13
  }
]

----------
Molecular target: DNA gyrase (Escherichia coli, UniProt P0AES4+P0AES6)
Assay: Inhibition of Escherichia coli his-tagged DNA gyrase supercoiling activity using pBR322 DNA in presence of ATP incubated for 1 hr by H19 dye based high throughput DNA gyrase assay
pIC50: −log10 of the molar value.
reported-property: pIC50

[
  {
    "molecule": "NCC(Nc1n[nH]c2ccc(-c3ccccc3Cl)cc12)c1ccccc1 (stereo not given)",
    "value": 5.49
  },
  {
    "molecule": "NC[C@@H](c1ccccc1)n1cnc2c(-c3ccccc3Cl)csc2c1=O",
    "value": 5.70
  },
  {
    "molecule": "NC[C@H](Oc1noc2ccc(-c3ccccc3Cl)cc12)c1ccccc1",
    "value": 6.80
  },
  {
    "molecule": "NC[C@H](Oc1noc2ncc(-c3ccccc3Cl)cc12)c1ccccc1",
    "value": 6.30
  },
  {
    "molecule": "N=C(N)NC[C@H](Oc1noc2ccc(-c3ccccc3Cl)cc12)c1ccccc1",
    "value": 6.80
  }
]

----------
Molecular target: DNA gyrase (Escherichia coli, UniProt P0AES4+P0AES6)
Test: Inhibition of Escherichia coli his-tagged DNA gyrase supercoiling activity using pBR322 DNA in presence of ATP incubated for 1 hr by H19 dye based high throughput DNA gyrase assay
Type: protein-complex assay

[
  {
    "compound": "NC[C@H](Oc1n[nH]c2ccc(-c3ccccc3Cl)cc12)c1ccccc1",
    "IC50, nM": 1600
  },
  {
    "compound": "Cn1nc(O[C@@H](CN)c2ccccc2)c2cc(-c3ccccc3Cl)ccc21",
    "IC50, nM": 5000
  },
  {
    "compound": "NC[C@H](Oc1noc2ccc(-c3ccccc3Cl)nc12)c1ccccc1",
    "IC50, nM": 1600
  },
  {
    "compound": "Cc1sc(-c2ccccc2Cl)cc1C(=O)N[C@@H](CN)c1ccccc1",
    "IC50, nM": 40
  },
  {
    "compound": "NC[C@H](Nc1nccc2ccc(-c3ccccc3Cl)cc12)c1ccccc1",
    "IC50, nM": 10000
  },
  {
    "compound": "Cn1nc(NC(CN)c2ccccc2)c2cc(-c3ccccc3Cl)ccc21 (configuration not stated)",
    "IC50, nM": 7900
  },
  {
    "compound": "NCC(Oc1noc2ccc(-c3ccccc3Cl)cc12)c1ccccn1 (configuration not stated)",
    "IC50, nM": 500
  }
]

----------
Listed next: entries and their corresponding CC50 at 72 h.
Assay: Cytotoxicity against mouse L5178Y cells (TK +/-) assessed as reduction in cell viability incubated for 72 hrs by Cell Titer-Glo assay
Conditions: l5178y
reported-property: CC50 at 72 h (µg/mL)

[
  {
    "smiles-code": "NC[C@H](Oc1noc2ccc(-c3ccccc3Cl)nc12)c1ccccc1",
    "value": 5
  },
  {
    "smiles-code": "Cc1sc(-c2ccccc2Cl)cc1C(=O)N[C@@H](CN)c1ccccc1",
    "value": 5
  },
  {
    "smiles-code": "NC[C@H](Oc1noc2ccc(-c3ccccc3Cl)cc12)c1ccccc1",
    "value": 10
  },
  {
    "smiles-code": "N=C(N)NC[C@H](Oc1noc2ccc(-c3ccccc3Cl)cc12)c1ccccc1",
    "value": 11
  }
]

----------
Biological target: DNA topoisomerase 2-alpha (Homo sapiens, UniProt P11388)
Sequence (P11388 whole entry): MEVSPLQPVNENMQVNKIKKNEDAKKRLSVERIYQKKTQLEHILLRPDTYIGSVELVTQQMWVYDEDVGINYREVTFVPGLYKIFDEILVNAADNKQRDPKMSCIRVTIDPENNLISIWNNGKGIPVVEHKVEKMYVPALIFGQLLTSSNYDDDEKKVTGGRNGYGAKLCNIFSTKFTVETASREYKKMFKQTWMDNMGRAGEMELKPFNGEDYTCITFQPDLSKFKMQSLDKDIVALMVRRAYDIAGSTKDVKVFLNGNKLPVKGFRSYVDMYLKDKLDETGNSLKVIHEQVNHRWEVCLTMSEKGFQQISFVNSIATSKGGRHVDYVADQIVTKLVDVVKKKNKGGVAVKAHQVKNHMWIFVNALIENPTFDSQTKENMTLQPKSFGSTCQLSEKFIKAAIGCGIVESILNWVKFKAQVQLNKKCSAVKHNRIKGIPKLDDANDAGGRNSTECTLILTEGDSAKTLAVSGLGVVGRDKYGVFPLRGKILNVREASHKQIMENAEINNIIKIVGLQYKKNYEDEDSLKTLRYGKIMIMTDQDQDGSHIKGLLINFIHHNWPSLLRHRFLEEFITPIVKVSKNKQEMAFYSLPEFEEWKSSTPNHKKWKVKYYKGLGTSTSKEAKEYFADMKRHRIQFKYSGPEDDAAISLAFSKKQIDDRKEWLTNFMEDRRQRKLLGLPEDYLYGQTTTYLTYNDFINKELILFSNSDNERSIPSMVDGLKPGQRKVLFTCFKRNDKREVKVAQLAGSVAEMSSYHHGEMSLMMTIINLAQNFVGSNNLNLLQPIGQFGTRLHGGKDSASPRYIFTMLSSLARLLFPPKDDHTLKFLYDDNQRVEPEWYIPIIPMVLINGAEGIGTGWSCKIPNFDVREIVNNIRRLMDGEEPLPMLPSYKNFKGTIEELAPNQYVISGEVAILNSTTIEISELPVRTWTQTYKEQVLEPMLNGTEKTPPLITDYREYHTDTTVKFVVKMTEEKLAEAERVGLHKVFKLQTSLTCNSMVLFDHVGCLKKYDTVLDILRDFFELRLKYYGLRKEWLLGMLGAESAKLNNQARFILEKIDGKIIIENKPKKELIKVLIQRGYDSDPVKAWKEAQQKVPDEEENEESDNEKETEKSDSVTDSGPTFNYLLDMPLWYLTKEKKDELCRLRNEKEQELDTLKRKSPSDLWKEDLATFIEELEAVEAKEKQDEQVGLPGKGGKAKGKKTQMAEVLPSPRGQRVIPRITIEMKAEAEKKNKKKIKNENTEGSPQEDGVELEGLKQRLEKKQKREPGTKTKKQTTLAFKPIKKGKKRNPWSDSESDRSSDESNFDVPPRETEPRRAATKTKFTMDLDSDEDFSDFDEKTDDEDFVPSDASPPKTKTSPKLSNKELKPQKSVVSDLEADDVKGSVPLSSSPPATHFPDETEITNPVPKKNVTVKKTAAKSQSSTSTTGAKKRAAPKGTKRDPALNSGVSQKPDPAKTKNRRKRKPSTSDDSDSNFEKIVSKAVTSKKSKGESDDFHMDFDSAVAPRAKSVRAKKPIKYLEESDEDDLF
reported-property: IC50 (µM)

[
  {
    "smiles-code": "NC[C@H](Oc1noc2ccc(-c3ccccc3Cl)cc12)c1ccccc1",
    "value": 210
  }
]
